SYSTEM_UNDER_TEST: SMARCA2 (Homo sapiens, UniProt P51531)
Sequence (P51531 whole entry): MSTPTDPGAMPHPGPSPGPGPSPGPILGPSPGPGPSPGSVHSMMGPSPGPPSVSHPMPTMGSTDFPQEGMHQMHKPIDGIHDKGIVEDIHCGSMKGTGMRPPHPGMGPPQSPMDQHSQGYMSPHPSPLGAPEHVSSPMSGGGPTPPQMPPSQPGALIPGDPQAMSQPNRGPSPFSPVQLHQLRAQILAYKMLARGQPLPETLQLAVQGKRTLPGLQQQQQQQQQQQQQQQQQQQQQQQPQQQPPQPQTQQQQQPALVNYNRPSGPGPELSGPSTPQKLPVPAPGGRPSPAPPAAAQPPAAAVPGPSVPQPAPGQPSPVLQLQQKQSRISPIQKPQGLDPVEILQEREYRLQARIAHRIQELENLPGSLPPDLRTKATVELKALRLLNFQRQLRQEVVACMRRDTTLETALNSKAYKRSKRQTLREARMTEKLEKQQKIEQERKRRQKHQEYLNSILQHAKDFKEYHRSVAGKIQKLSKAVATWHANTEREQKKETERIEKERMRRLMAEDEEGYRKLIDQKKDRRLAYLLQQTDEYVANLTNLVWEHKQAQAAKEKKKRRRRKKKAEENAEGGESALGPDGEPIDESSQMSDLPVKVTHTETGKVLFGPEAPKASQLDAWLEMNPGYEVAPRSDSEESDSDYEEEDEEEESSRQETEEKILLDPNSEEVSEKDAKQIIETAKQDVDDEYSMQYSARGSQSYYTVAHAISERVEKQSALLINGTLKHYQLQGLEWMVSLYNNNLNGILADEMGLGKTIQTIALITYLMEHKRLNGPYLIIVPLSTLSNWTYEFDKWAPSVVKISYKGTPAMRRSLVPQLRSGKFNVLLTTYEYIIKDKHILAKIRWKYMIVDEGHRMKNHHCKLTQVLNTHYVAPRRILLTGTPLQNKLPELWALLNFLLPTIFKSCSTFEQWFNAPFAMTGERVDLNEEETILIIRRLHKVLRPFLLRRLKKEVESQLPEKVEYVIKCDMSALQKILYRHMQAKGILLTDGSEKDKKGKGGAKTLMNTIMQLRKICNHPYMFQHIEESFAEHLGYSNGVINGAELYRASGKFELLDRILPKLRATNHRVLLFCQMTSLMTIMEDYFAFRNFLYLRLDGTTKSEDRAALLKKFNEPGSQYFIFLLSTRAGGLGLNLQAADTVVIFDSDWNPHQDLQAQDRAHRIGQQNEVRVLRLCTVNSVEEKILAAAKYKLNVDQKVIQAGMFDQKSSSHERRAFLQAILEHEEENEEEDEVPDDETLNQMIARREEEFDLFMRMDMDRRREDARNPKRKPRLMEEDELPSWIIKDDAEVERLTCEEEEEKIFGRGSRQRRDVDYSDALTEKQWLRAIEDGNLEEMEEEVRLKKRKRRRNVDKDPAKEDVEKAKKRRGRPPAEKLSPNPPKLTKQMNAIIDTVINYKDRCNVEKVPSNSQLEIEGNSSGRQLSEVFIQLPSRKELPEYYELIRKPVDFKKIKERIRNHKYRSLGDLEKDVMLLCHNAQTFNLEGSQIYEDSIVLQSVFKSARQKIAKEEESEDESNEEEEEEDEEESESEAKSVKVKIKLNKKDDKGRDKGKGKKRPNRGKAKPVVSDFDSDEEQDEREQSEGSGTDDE
METHOD_DESCRIPTION: MSD SMARCA2 degradation in NCI-H1299 cell line (24 h)
Type: cell-based
Set-up: HC: NCI-H1299 cells treated with DMSO; host or cells: NCI-H1299
EXPERIMENTAL_SETUP: NCI-H1299 cells, read-out: SMARCA2 MSD H1299 degradation 24 h: External Abs-DC50
RECORDED_METRIC: DC50

Consider the worked cases shown below.
>  <COMPOUND>
O=C1CCC(N2C(=O)c3cccc(NCCOCc4cn(Cc5cccc(N6C[C@H]7C[C@@H]6CN7/C=C/C(=O)c6ccccc6O)n5)nn4)c3C2=O)C(=O)N1 (some centres unmarked) [I-38]

>  <SYSTEM_UNDER_TEST>
SMARCA2 (Homo sapiens, UniProt P51531)

>  <DC50>
> 1000 nM

$$$$
>  <COMPOUND>
Nc1nnc(-c2ccccc2O)cc1N1C[C@H]2C[C@@H]1CN2c1cccc(Cn2cc(CCCCOc3cccc4c3C(=O)N(C3CCC(=O)NC3=O)C4=O)nn2)n1 (some centres unmarked) [I-43]

>  <SYSTEM_UNDER_TEST>
SMARCA2 (Homo sapiens, UniProt P51531)

>  <DC50>
> 1000 nM

$$$$
>  <COMPOUND>
COc1cc(C(=O)NCCCCCCCCCNCc2ccc(N3CCN(c4cc(-c5ccccc5O)nnc4N)CC3)cc2)ccc1NC(=O)[C@@H]1N[C@@H](CC(C)(C)C)[C@](C#N)(c2ccc(Cl)cc2F)[C@H]1c1cccc(Cl)c1F [I-235]

>  <SYSTEM_UNDER_TEST>
SMARCA2 (Homo sapiens, UniProt P51531)

>  <DC50>
> 1000 nM

$$$$
>  <COMPOUND>
Cc1ncsc1-c1ccc(CNC(=O)[C@@H]2C[C@@H](O)CN2C(=O)[C@@H](NC(=O)CCCN2CCC(n3cc(-c4cc(-c5ccccc5O)nnc4N)cn3)CC2)C(C)(C)C)cc1 [I-459]

>  <SYSTEM_UNDER_TEST>
SMARCA2 (Homo sapiens, UniProt P51531)

>  <DC50>
100 to 500 nM

$$$$
>  <COMPOUND>
O=C1CCC(n2c(=O)n(CCCCCc3cn(Cc4cccc(N5C[C@H]6C[C@@H]5CN6/C=C/C(=O)c5ccccc5O)n4)nn3)c3ccccc32)C(=O)N1 (some centres unmarked) [I-55]

>  <SYSTEM_UNDER_TEST>
SMARCA2 (Homo sapiens, UniProt P51531)

>  <DC50>
> 1000 nM

$$$$
>  <COMPOUND>
Cn1c(=O)n(C2CCC(=O)NC2=O)c2cccc(C#CCCCCCc3cn(Cc4cccc(N5C[C@H]6C[C@@H]5CN6/C=C/C(=O)c5ccccc5O)n4)nn3)c21 (some centres unmarked) [I-67]

>  <SYSTEM_UNDER_TEST>
SMARCA2 (Homo sapiens, UniProt P51531)

>  <DC50>
> 1000 nM

$$$$
>  <COMPOUND>
Cn1c(=O)n(C2CCC(=O)NC2=O)c2ccc(CCCCOc3ccc(CN4CCN(c5cc(-c6ccccc6O)nnc5N)CC4)cc3)cc21 (centres unmarked) [I-84]

>  <SYSTEM_UNDER_TEST>
SMARCA2 (Homo sapiens, UniProt P51531)

>  <DC50>
> 1000 nM

$$$$
>  <COMPOUND>
Cc1ncsc1-c1ccc(CNC(=O)[C@@H]2C[C@@H](O)CN2C(=O)[C@@H](NC(=O)COCCOCCOCCOCCOCCNC(=O)CCCCCCCCOc2ccnc(N3C[C@H]4C[C@@H]3CN4/C=C/C(=O)c3ccccc3O)c2)C(C)(C)C)cc1 [I-222]

>  <SYSTEM_UNDER_TEST>
SMARCA2 (Homo sapiens, UniProt P51531)

>  <DC50>
> 1000 nM

$$$$
>  <COMPOUND>
Cn1c(=O)n(C2CCC(=O)NC2=O)c2cccc(CCCCCOc3cccc(CN4CCN(c5cc(-c6ccccc6O)nnc5N)CC4)c3)c21 (centres unmarked) [I-97]

>  <SYSTEM_UNDER_TEST>
SMARCA2 (Homo sapiens, UniProt P51531)

>  <DC50>
100 to 500 nM

$$$$
>  <COMPOUND>
CN(CC[C@@H]1CN(CCCc2cccc3c2n(C)c(=O)n3C2CCC(=O)NC2=O)CCO1)Cc1ccc(N2CCN(c3cc(-c4ccccc4O)nnc3N)CC2)cc1 (some centres unmarked) [I-111]

>  <SYSTEM_UNDER_TEST>
SMARCA2 (Homo sapiens, UniProt P51531)

>  <DC50>
100 to 500 nM

$$$$

DC50 reading for Cn1c(=O)n(C2CCC(=O)NC2=O)c2ccc(CN3CCC(n4cc(-c5cc(-c6ccccc6O)nnc5N)cn4)CC3)cc21 (centres unmarked) [I-181] : > 1000 nM

DC50 reading for Cn1c(=O)n(C2CCC(=O)NC2=O)c2ccc(CCCNCc3cn(Cc4cccc(N5C[C@H]6C[C@@H]5CN6/C=C/C(=O)c5ccccc5O)n4)nn3)cc21 (some centres unmarked) [I-29] : > 1000 nM

DC50 reading for O=C1CCC(n2c(=O)n(CCCCc3cn(Cc4cccc(N5C[C@H]6C[C@@H]5CN6/C=C/C(=O)c5ccccc5O)n4)nn3)c3ccccc32)C(=O)N1 (some centres unmarked) [I-54] : > 1000 nM
